Target: MMP1 (Homo sapiens)
Assay: MMP-1 colorimetric inhibition assay (Enzo kit BML-AK404)
Assay type: biochemical
Settings: thiopeptide substrate, absorbance 415 nm; read-out: MMP 1 IC50 class
pIC50: −log10 of the molar value.
QUANTITY MEASURED: pIC50

Examples with their reported pIC50 follow.
# SMILES INPUT, pIC50
rows = [
    ("COCCOC(=O)N1[C@@H]2CC[C@H]1[C@H](C(=O)NO)N(S(=O)(=O)c1ccc(Oc3ccc(Cl)c(F)c3)nc1)C2", "6.00 to 7.30"),
    ("CCOC(=O)N1[C@@H]2CC[C@H]1[C@H](C(=O)NO)N(S(=O)(=O)N1CCC(Oc3ccnc(C(F)(F)F)c3)CC1)C2", "< 5.00"),
]

For the next question, use this molecule.
I looked up COCCOC(=O)N1[C@@H]2CC[C@H]1[C@H](C(=O)NO)N(S(=O)(=O)c1ccc(Oc3cnn(C)c3)c(F)c1)C2 and its pIC50 for MMP1 (Homo sapiens) was > 7.30

====

Biological target: MMP1 (Homo sapiens)
Assay: MMP-1 colorimetric inhibition assay (Enzo kit BML-AK404)
Format: biochemical
Settings: thiopeptide substrate, absorbance 415 nm; read-out: MMP 1 IC50 class
QUANTITY MEASURED: IC50

Answered cases to consult:
# COMPOUND, IC50
records = [
    ("CCOC(=O)N1[C@@H]2CC[C@H]1[C@H](C(=O)NO)N(S(=O)(=O)c1ccc(Oc3ccc(F)cc3)nc1)C2 [Example 65]", "0.05 to 1 µM"),
    ("CCOc1ccc(Oc2ccc(S(=O)(=O)N3C[C@H]4CC[C@@H]([C@@H]3C(=O)NO)N4C(=O)OCCOC)cn2)cc1 [Example 29]", "0.05 to 1 µM"),
    ("CC(=O)N1[C@@H]2CC[C@H]1[C@H](C(=O)NO)N(S(=O)(=O)N1CCC(Oc3ccnc(C(F)(F)F)c3)CC1)C2 [Example 64]", "1 to 10 µM"),
]

Continue with the next compound.
The reported IC50 of the compound CC(=O)N1[C@@H]2CC[C@H]1[C@H](C(=O)NO)N(S(=O)(=O)c1ccc(Oc3ccc(OC(C)C)cc3)nc1)C2 [Example 58] was 1 to 10 µM

====

Target: ADAM17 (TACE) (Homo sapiens)
Test: TACE fluorometric inhibition assay (Enzo kit BML-AK310)
Format: biochemical
pIC50: −log10 of the molar value.
Consider the following molecules and their measured pIC50 readings.

Record excerpt, results attached:
# MOLECULE, ENDPOINT RESULT
rows = [
    ("COCCOC(=O)N1[C@@H]2CC[C@H]1[C@H](C(=O)NO)N(S(=O)(=O)c1ccc(OC3CCC(OC)CC3)nc1)C2 (stereo partly shown)", "5.00 to 6.00"),
    ("COCCOC(=O)N1[C@@H]2CC[C@H]1[C@H](C(=O)NO)N(S(=O)(=O)N1CCC(Oc3ccc(F)cc3)C1)C2 (stereo partly shown)", "6.00 to 7.30"),
    ("O=C(NO)[C@H]1[C@@H]2CC[C@H](CN1S(=O)(=O)c1ccc(Oc3ccc(OCC(F)(F)F)cc3)nc1)N2C(=O)N1CCOCC1", "< 5.00"),
]

With those in mind, consider the next molecule.
Simply: COCCOC(=O)N1[C@@H]2CC[C@H]1[C@H](C(=O)NO)N(S(=O)(=O)N1CCC(Oc3ccc(Cl)cc3)C1)C2 (stereo partly shown) , ADAM17 (TACE) (Homo sapiens), pIC50 = 6.00 to 7.30

====

Biological target: MMP13 (Homo sapiens, UniProt P45452)
Construct: purchased Enzo Life Sciences, Inc. BML-AK412
Assay: MMP-13 colorimetric inhibition assay (Enzo kit BML-AK412)
Type: biochemical
Details: thiopeptide substrate, absorbance 415 nm; read-out: MMP 13 IC50 class
pIC50: −log10 of the molar value.
Measured pIC50 accompanies every entry in the list below.

# COMPOUND, pIC50
data = [
    ("COCCOC(=O)N1[C@@H]2CC[C@H]1[C@H](C(=O)NO)N(S(=O)(=O)N1CCN(C(=O)c3ccc(Cl)cc3)CC1)C2 [Example 78]", "5.00 to 6.00"),
    ("CN(C)C(=O)CN1[C@@H]2CC[C@H]1[C@H](C(=O)NO)N(S(=O)(=O)c1ccc(Oc3ccc(F)cc3)nc1)C2 [Example 51]", "> 7.30"),
    ("COCCOC(=O)N1[C@@H]2CC[C@H]1[C@H](C(=O)NO)N(S(=O)(=O)c1ccc(Oc3ccc(F)cc3)c(F)c1)C2 [Example 5]", "> 7.30"),
    ("COCCOC(=O)N1[C@@H]2CC[C@H]1[C@H](C(=O)NO)N(S(=O)(=O)c1cc(F)c(Oc3ccc(Cl)cc3)c(F)c1)C2 [Example 2]", "6.00 to 7.30"),
    ("COCCOC(=O)N1[C@@H]2CC[C@H]1[C@H](C(=O)NO)N(S(=O)(=O)c1ccc(Oc3cncc(F)c3)nc1)C2 [Example 23]", "6.00 to 7.30"),
]

Now examine the next entry.
In plain terms, COCCOC(=O)N1[C@@H]2CC[C@H]1[C@H](C(=O)NO)N(S(=O)(=O)c1ccc(Oc3ccc(C)cc3)nc1)C2 [Example 32] has a documented pIC50 of > 7.30

====

Target: ADAM17 (TACE) (Homo sapiens, UniProt P78536)
Sequence (P78536 215-477 limits assumed): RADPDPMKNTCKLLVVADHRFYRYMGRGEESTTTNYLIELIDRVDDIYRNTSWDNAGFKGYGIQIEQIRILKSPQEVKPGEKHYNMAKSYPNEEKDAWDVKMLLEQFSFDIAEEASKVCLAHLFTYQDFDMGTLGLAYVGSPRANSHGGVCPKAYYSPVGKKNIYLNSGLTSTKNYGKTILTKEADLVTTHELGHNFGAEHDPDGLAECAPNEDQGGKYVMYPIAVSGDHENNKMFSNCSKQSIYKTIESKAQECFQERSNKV
Assay: TACE fluorometric inhibition assay (Enzo kit BML-AK310)
Type: biochemical
Details: quenched fluorogenic peptide, ex/em 320/420 nm; read-out: TACE IC50 class
Description: The inhibitory activities of the compounds of the invention were assessed in 96-well microplate format using MMP1, MMP2, MMP9 and MMP13 colorimetric assay kits and TACE fluorometric assay kit from Enzo Life Sciences, Inc. The inhibitory effect of the compounds of the invention on ADAM10 activity were evaluated in 96-well microplate format using fluorometric assay from AnaSpec, Inc. […]
pIC50: −log10 of the molar value.
Property: pIC50; scope: individual compounds

# SMILES INPUT, ENDPOINT RESULT
records = [
    ("COCCOC(=O)N1[C@@H]2CC[C@H]1[C@H](C(=O)NO)N(S(=O)(=O)c1ccc(Oc3nc4ccc(F)cc4o3)c(F)c1)C2", "6.00 to 7.30"),
    ("CCOC(=O)N1[C@@H]2CC[C@H]1[C@H](C(=O)NO)N(S(=O)(=O)N1CCC(Oc3ccnc(C(F)(F)F)c3)CC1)C2", "5.00 to 6.00"),
    ("COCCOC(=O)N1[C@@H]2CC[C@H]1[C@H](C(=O)NO)N(S(=O)(=O)c1ccc(Oc3ccc(F)cc3F)nc1)C2", "6.00 to 7.30"),
    ("COCCOC(=O)N1[C@@H]2CC[C@H]1[C@H](C(=O)NO)N(S(=O)(=O)c1ccc(Oc3ccc(OC(F)F)cc3)nc1)C2", "6.00 to 7.30"),
]

Entry COCCOC(=O)N1[C@@H]2CC[C@H]1[C@H](C(=O)NO)N(S(=O)(=O)c1ccc(Oc3ccc(F)cc3)cn1)C2 , pIC50 reported as 5.00 to 6.00

Memo: COCCOC(=O)N1[C@@H]2CC[C@H]1[C@H](C(=O)NO)N(S(=O)(=O)N1CCN(Cc3ccc(OC)cc3)CC1)C2 , reported pIC50: 5.00 to 6.00

====

Molecular target: MMP1 (Homo sapiens)
Sequence (P03956 100-269 limits assumed): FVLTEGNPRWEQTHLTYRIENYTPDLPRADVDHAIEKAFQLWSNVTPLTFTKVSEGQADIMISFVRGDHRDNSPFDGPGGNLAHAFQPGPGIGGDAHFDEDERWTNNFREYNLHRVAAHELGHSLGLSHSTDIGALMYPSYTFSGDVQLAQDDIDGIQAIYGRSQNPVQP
Experiment: MMP-1 colorimetric inhibition assay (Enzo kit BML-AK404)
Assay type: biochemical
Settings: thiopeptide substrate, absorbance 415 nm; read-out: MMP 1 IC50 class
pIC50: −log10 of the molar value.
// reported pIC50 for each item listed

# COMPOUND, pIC50
data = [
    ("COCCOC(=O)N1[C@@H]2CC[C@H]1[C@H](C(=O)NO)N(S(=O)(=O)c1ccc(Oc3ccc(Cl)cc3)nc1)C2 [Example 8]", "6.00 to 7.30"),
]

Okay, next one:
MMP1 (Homo sapiens) data for COCCOC(=O)N1[C@@H]2CC[C@H]1[C@H](C(=O)NO)N(S(=O)(=O)c1ccc(Oc3ccc(C(C)(C)O)cc3)nc1)C2 [Example 26] ; its pIC50: < 5.00

====

Molecular target: UniProt:P78536
Assay: TACE fluorometric inhibition assay (Enzo kit BML-AK310)
Type: biochemical
Settings: quenched fluorogenic peptide, ex/em 320/420 nm; read-out: TACE IC50 class
pIC50: −log10 of the molar value.
QUANTITY MEASURED: pIC50

Here is how some compounds turned out for pIC50.
# COMPOUND, TARGET ENTITY, pIC50
data = [
    ("CCn1cc(Oc2ccc(S(=O)(=O)N3C[C@H]4CC[C@@H]([C@@H]3C(=O)NO)N4C(=O)OCCOC)cn2)cn1 [Example 35]", "UniProt:P78536", "6.00 to 7.30"),
    ("COCCOC(=O)N1[C@@H]2CC[C@H]1[C@H](C(=O)NO)N(S(=O)(=O)c1ccc(Oc3cnn(CC(C)C)c3)nc1)C2 [Example 38]", "UniProt:P78536", "6.00 to 7.30"),
    ("CCC(=O)N1[C@@H]2CC[C@H]1[C@H](C(=O)NO)N(S(=O)(=O)c1ccc(Oc3ccc(OC(C)C)cc3)nc1)C2 [Example 59]", "UniProt:P78536", "< 5.00"),
    ("COCCOC(=O)N1[C@@H]2CC[C@H]1[C@H](C(=O)NO)N(S(=O)(=O)c1ccc(Oc3cncc(Cl)c3)nc1)C2 [Example 15]", "UniProt:P78536", "6.00 to 7.30"),
]

CC(C)Oc1ccc(Oc2ccc(S(=O)(=O)N3C[C@H]4CC[C@@H]([C@@H]3C(=O)NO)N4C(=O)N3CCOCC3)cn2)cc1 [Example 71] yielded pIC50 of < 5.00

Measured pIC50, COCCOC(=O)N1[C@@H]2CC[C@H]1[C@H](C(=O)NO)N(S(=O)(=O)c1ccc(Oc3ccc(OCC(F)(F)F)cc3)nc1)C2 [Example 25] : < 5.00

Entry under test: COCCOC(=O)N1[C@@H]2CC[C@H]1[C@H](C(=O)NO)N(S(=O)(=O)c1ccc(Oc3cnc(OC)nc3)nc1)C2 [Example 27] . Its pIC50 was 5.00 to 6.00

The measured pIC50 associated with COCCOC(=O)N1[C@@H]2CC[C@H]1[C@H](C(=O)NO)N(S(=O)(=O)c1ccc(Oc3ccc(F)cc3)nc1)C2 [Example 1] reads 5.00 to 6.00

Measured values drawn from patent US20250215010A1 for this set.
